test system: betaine/GABA transporter BGT-1 (Slc6a12, Mus musculus); test: Residual mouse GAT2-mediated [3H]GABA uptake expressed in human HEK cells at 100 uM; conditions: HEK293
Would you please tag the item fulfilled when its residual activity is 80% or above, and not fulfilled when it is below?

Q) Does `C(CCNCc1nnnn1Cc1ccccc1)=C(c1ccccc1)c1ccccc1` have a reported residual activity of at least 80%?
A) fulfilled

Q) Does `CC(C)(C)CC(C)(C)n1nnnc1CNCCC=C(c1ccccc1)c1ccccc1` have a reported residual activity of at least 80%?
A) not fulfilled

Q) Does `CC(C)(C)CC(C)(C)n1nnnc1CNCCC(c1ccccc1)c1ccccc1` have a reported residual activity of at least 80%?
A) not fulfilled

Q) Does `CC(C)(C)CC(C)(C)n1nnnc1CNCCCn1c2ccccc2c2ccccc21` have a reported residual activity of at least 80%?
A) not fulfilled

Q) Does `CC(C)(C)CC(C)(C)n1nnnc1CN1CCNCC1` have a reported residual activity of at least 80%?
A) fulfilled

Q) Does `C(CCNCc1nnnn1C1CCCCC1)=C(c1ccccc1)c1ccccc1` have a reported residual activity of at least 80%?
A) not fulfilled

Q) Does `c1ccc(C(CNCc2nnnn2C2CCCCC2)c2ccccc2)cc1` have a reported residual activity of at least 80%?
A) not fulfilled

Q) Does `CC(C)(C)CC(C)(C)n1nnnc1CN1CCOCC1` have a reported residual activity of at least 80%?
A) fulfilled

Q) Does `c1ccc(C(CCCNCc2nnn[nH]2)c2ccccc2)cc1` have a reported residual activity of at least 80%?
A) fulfilled

Q) Does `c1ccc(C(CNCc2nnn[nH]2)c2ccccc2)cc1` have a reported residual activity of at least 80%?
A) fulfilled

----------
target: Sodium- and chloride-dependent GABA transporter 1 (Mus musculus) (UniProt P31648); assay: Residual mouse GAT1-mediated [3H]GABA uptake expressed in human HEK cells at 100 uM; details: HEK293
Give measured residual activity for each item. Keep answers brief.
Provide only the numeric value, understood in %.

residual activity for `c1ccc(C(CNCc2nnnn2C2CCCCC2)c2ccccc2)cc1` is 59.1

residual activity for `CC(C)(C)CC(C)(C)n1nnnc1CNCCCC(c1ccccc1)c1ccccc1` is 63.8

residual activity for `c1ccc(C(CNCc2nnn[nH]2)c2ccccc2)cc1` is 48.2

residual activity for `c1ccc(Cn2nnnc2CNCCC(c2ccccc2)c2ccccc2)cc1` is 73.9

residual activity for `c1ccc(C(NCc2nnnn2C2CCCCC2)c2ccccc2)cc1` is 54.8

residual activity for `CC(C)(C)CC(C)(C)n1nnnc1CN1CCOCC1` is 73.4

residual activity for `C(CCNCc1nnnn1Cc1ccccc1)=C(c1ccccc1)c1ccccc1` is 69.4

residual activity for `C(CNCc1nnnn1C1CCCCC1)=C(c1ccccc1)c1ccccc1` is 62.9

residual activity for `C(CNCc1nnn[nH]1)=C(c1ccccc1)c1ccccc1` is 80.5

residual activity for `CC(C)(C)CC(C)(C)n1nnnc1CNCCC(c1ccccc1)c1ccccc1` is 70.7

residual activity for `CC(C)(C)CC(C)(C)n1nnnc1CNC(c1ccccc1)c1ccccc1` is 85.6

residual activity for `c1ccc(C(NCc2nnn[nH]2)c2ccccc2)cc1` is 69.7

residual activity for `CCCCNCc1nnn[nH]1` is 105

residual activity for `C(CCNCc1nnnn1C1CCCCC1)=C(c1ccccc1)c1ccccc1` is 64.5

residual activity for `c1ccc(C(CCCNCc2nnnn2C2CCCCC2)c2ccccc2)cc1` is 70.6

residual activity for `C(CNCc1nnnn1Cc1ccccc1)=C(c1ccccc1)c1ccccc1` is 57.3

residual activity for `C(CCNCc1nnn[nH]1)=C(c1ccccc1)c1ccccc1` is 86.1

residual activity for `c1ccc(C(CCNCc2nnn[nH]2)c2ccccc2)cc1` is 100

residual activity for `CC(C)(C)CC(C)(C)n1nnnc1CNCC(c1ccccc1)c1ccccc1` is 83.3

residual activity for `CC(C)(C)CC(C)(C)n1nnnc1CNCCC=C(c1ccccc1)c1ccccc1` is 75.4

residual activity for `c1ccc2c(c1)c1ccccc1n2CCCNCc1nnn[nH]1` is 86.3

residual activity for `CCCCNCc1nnnn1C(C)(C)CC(C)(C)C` is 83.3

residual activity for `c1ccc(Cn2nnnc2CNC(c2ccccc2)c2ccccc2)cc1` is 81.1

residual activity for `CC(C)(C)CC(C)(C)n1nnnc1CNCC=C(c1ccccc1)c1ccccc1` is 65.7
